# Test system: MCF-7
# test-method-notes: cells
# Type: cell-based, human
# measurement-conditions: Homo sapiens, MCF7, 48 h, read-out: IC50, MCF-7
# pIC50 values compiled below
When answering, recall that pIC50 equals minus log10 of the concentration in mol/L, and write that number alone.

Previously resolved entries follow.
CCOP(=O)(OCC)C(c1cc(C(C)(C)C)c(O)c(C(C)(C)C)c1)c1ccc(N)nc1N (stereo not shown) [2b]: 4.47
CC(C)OP(=O)(OC(C)C)C(c1cc(C(C)(C)C)c(O)c(C(C)(C)C)c1)c1ccc(Nc2c([N+](=O)[O-])cc([N+](=O)[O-])c3no[n+]([O-])c23)nc1Nc1c([N+](=O)[O-])cc([N+](=O)[O-])c2no[n+]([O-])c12 (stereo not shown) [5c]: 5.35
COP(=O)(OC)C(c1cc(C(C)(C)C)c(O)c(C(C)(C)C)c1)c1ccc(Nc2c([N+](=O)[O-])cc([N+](=O)[O-])c3no[n+]([O-])c23)nc1N (stereo not shown) [4a]: 5.12

Look up pIC50: CC(C)OP(=O)(OC(C)C)C(c1cc(C(C)(C)C)c(O)c(C(C)(C)C)c1)c1ccc(N)nc1N (stereo not shown) [2c]
4.66

What measured pIC50 goes with CC(C)(C)c1cc(C(c2ccc(N)nc2N)P(=O)(Oc2ccccc2)Oc2ccccc2)cc(C(C)(C)C)c1O (stereo not shown) [2d] ?
4.80

Return reported pIC50; argument: CC(C)(C)c1cc(C(c2ccc(Nc3c([N+](=O)[O-])cc([N+](=O)[O-])c4no[n+]([O-])c34)nc2Nc2c([N+](=O)[O-])cc([N+](=O)[O-])c3no[n+]([O-])c23)P(=O)(Oc2ccccc2)Oc2ccccc2)cc(C(C)(C)C)c1O (stereo not shown) [5d]
5.68

Name the recorded pIC50 for COP(=O)(OC)C(c1cc(C(C)(C)C)c(O)c(C(C)(C)C)c1)c1ccc(Nc2c([N+](=O)[O-])cc([N+](=O)[O-])c3no[n+]([O-])c23)nc1Nc1c([N+](=O)[O-])cc([N+](=O)[O-])c2no[n+]([O-])c12 (stereo not shown) [5a] .
4.92

Item CCOP(=O)(OCC)C(c1cc(C(C)(C)C)c(O)c(C(C)(C)C)c1)c1ccc(Nc2c([N+](=O)[O-])cc([N+](=O)[O-])c3no[n+]([O-])c23)nc1N (stereo not shown) [4b] has what recorded pIC50?
5.51

Sample CC(C)(C)c1cc(C(c2ccc(Nc3c([N+](=O)[O-])cc([N+](=O)[O-])c4no[n+]([O-])c34)nc2N)P(=O)(Oc2ccccc2)Oc2ccccc2)cc(C(C)(C)C)c1O (stereo not shown) [4d] — what was its pIC50?
5.05

###

# pIC50 annotations
# Tested on: WI38
# test-method-notes: cells
# Format: cell-based
# measurement-conditions: Homo sapiens, WI-38; normal cell line, 48 h incubation, MTT; read-out: IC50, WI38
Schema: pIC50 number; meaning minus log10 of the concentration expressed in molar units.

CNC(=O)c1cc(Oc2ccc(NC(=O)Nc3ccc(Cl)c(C(F)(F)F)c3)cc2)ccn1 [SF, sorafenib, reference compound]: 5.18

Okay, next one:
So what pIC50 did COc1cccc2c1C(=O)c1c(O)c3c(c(O)c1C2=O)C[C@@](O)(C(=O)CO)C[C@@H]3O[C@H]1C[C@H](N)[C@H](O)[C@H](C)O1 [DOX, doxorubicin, reference compound] get with WI38?
6.40

###

# System: T98G
# test-method-notes: cells
# Format: cell-based
# measurement-conditions: Homo sapiens, 48 h, read-out: IC50, T98G
result-type: log10 IC50 (log10 of the value in µM)
Please be aware that the numbers have been log10-transformed from IC50 in µM.

Can you look up the measured log10 IC50 of CC(C)(C)c1cc(C(c2ccc(Nc3c([N+](=O)[O-])cc([N+](=O)[O-])c4no[n+]([O-])c34)nc2N)P(=O)(Oc2ccccc2)Oc2ccccc2)cc(C(C)(C)C)c1O (stereo not shown) for me?
0.90

log10 IC50 for CC(C)OP(=O)(OC(C)C)C(c1cc(C(C)(C)C)c(O)c(C(C)(C)C)c1)c1ccc(Nc2c([N+](=O)[O-])cc([N+](=O)[O-])c3no[n+]([O-])c23)nc1N (stereo not shown) ?
0.34

Quick one: log10 IC50 for COP(=O)(OC)C(c1cc(C(C)(C)C)c(O)c(C(C)(C)C)c1)c1ccc(Nc2c([N+](=O)[O-])cc([N+](=O)[O-])c3no[n+]([O-])c23)nc1N (stereo not shown) ?
1.09

Look at this molecule and give its reported log10 IC50. CC(C)(C)c1cc(C(c2ccc(Nc3c([N+](=O)[O-])cc([N+](=O)[O-])c4no[n+]([O-])c34)nc2Nc2c([N+](=O)[O-])cc([N+](=O)[O-])c3no[n+]([O-])c23)P(=O)(Oc2ccccc2)Oc2ccccc2)cc(C(C)(C)C)c1O (stereo not shown)
0.68

For the molecule CCOP(=O)(OCC)C(c1cc(C(C)(C)C)c(O)c(C(C)(C)C)c1)c1ccc(Nc2c([N+](=O)[O-])cc([N+](=O)[O-])c3no[n+]([O-])c23)nc1N (stereo not shown) , what log10 IC50 is on record?
0.92

// query log10 IC50 value for entry COP(=O)(OC)C(c1cc(C(C)(C)C)c(O)c(C(C)(C)C)c1)c1ccc(Nc2c([N+](=O)[O-])cc([N+](=O)[O-])c3no[n+]([O-])c23)cc1N (stereo not shown)
1.60

Sample COc1cccc2c1C(=O)c1c(O)c3c(c(O)c1C2=O)C[C@@](O)(C(=O)CO)C[C@@H]3O[C@H]1C[C@H](N)[C@H](O)[C@H](C)O1 [DOX, doxorubicin, reference compound] — what was its log10 IC50?
0.30

Name the reported log10 IC50 value associated with the molecule CNC(=O)c1cc(Oc2ccc(NC(=O)Nc3ccc(Cl)c(C(F)(F)F)c3)cc2)ccn1 [SF, sorafenib, reference compound]
0.93

Which measured log10 IC50 value corresponds to CC(C)OP(=O)(OC(C)C)C(c1cc(C(C)(C)C)c(O)c(C(C)(C)C)c1)c1ccc(Nc2c([N+](=O)[O-])cc([N+](=O)[O-])c3no[n+]([O-])c23)nc1Nc1c([N+](=O)[O-])cc([N+](=O)[O-])c2no[n+]([O-])c12 (stereo not shown) ?
0.89

Would you kindly share the measured log10 IC50 for COP(=O)(OC)C(c1cc(C(C)(C)C)c(O)c(C(C)(C)C)c1)c1ccc(Nc2c([N+](=O)[O-])cc([N+](=O)[O-])c3no[n+]([O-])c23)nc1Nc1c([N+](=O)[O-])cc([N+](=O)[O-])c2no[n+]([O-])c12 (stereo not shown) ?
1.43

###

# Tested on: PC3
# test-method-notes: cells
# Format: cell-based
# measurement-conditions: Homo sapiens, PC-3; cancer cell line, 48 h incubation, MTT; read-out: IC50, PC3
result-type: pIC50
On this scale, pIC50 is minus log10 of a concentration expressed in M (mol/L).

So what does the record say about pIC50 for CNC(=O)c1cc(Oc2ccc(NC(=O)Nc3ccc(Cl)c(C(F)(F)F)c3)cc2)ccn1 [SF, sorafenib, reference compound] ?
4.95

###

# Test system: MCF-7
# test-method-notes: cells
# Format: cell-based, human
# measurement-conditions: Homo sapiens, MCF7, 48 h, read-out: IC50, MCF-7
result-type: pIC50
API: returns pIC50 as number; meaning -log10 of concentration in mol/L.

Before answering, review these 2 worked examples.
COP(=O)(OC)C(c1cc(C(C)(C)C)c(O)c(C(C)(C)C)c1)c1ccc(Nc2c([N+](=O)[O-])cc([N+](=O)[O-])c3no[n+]([O-])c23)cc1N (stereo not shown): 4.67
CC(C)OP(=O)(OC(C)C)C(c1cc(C(C)(C)C)c(O)c(C(C)(C)C)c1)c1ccc(Nc2c([N+](=O)[O-])cc([N+](=O)[O-])c3no[n+]([O-])c23)nc1N (stereo not shown): 5.96

Consider the compound shown here: COP(=O)(OC)C(c1cc(C(C)(C)C)c(O)c(C(C)(C)C)c1)c1ccc(N)nc1N (stereo not shown) What is its recorded pIC50?
4.51
